Each record here notes measured pEC50.
target: recombinant human AMPK complex 1 (containing α1β1γ1) (Homo sapiens, UniProt Q13131+Q9Y478); experiment: in vitro AMPK activation assay (AMPKSAMSF); conditions: recombinant human AMPK complex 1 (α1β1γ1); table
Sequence (Q13131 whole entry): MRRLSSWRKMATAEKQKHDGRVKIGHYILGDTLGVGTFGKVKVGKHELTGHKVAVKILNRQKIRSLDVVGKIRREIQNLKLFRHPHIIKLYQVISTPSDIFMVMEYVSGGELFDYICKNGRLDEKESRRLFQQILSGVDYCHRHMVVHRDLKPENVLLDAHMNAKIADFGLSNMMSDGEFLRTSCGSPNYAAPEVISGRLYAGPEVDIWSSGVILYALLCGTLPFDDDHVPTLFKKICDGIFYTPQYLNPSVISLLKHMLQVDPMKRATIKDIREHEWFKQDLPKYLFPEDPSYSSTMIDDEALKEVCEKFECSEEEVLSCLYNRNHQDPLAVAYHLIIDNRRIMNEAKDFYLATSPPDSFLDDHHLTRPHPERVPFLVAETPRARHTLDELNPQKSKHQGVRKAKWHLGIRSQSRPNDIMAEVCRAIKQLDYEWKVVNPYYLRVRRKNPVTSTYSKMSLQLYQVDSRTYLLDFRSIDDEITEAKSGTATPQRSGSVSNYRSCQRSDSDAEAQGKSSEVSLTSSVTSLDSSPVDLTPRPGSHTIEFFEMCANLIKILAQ
Sequence (Q9Y478 whole entry): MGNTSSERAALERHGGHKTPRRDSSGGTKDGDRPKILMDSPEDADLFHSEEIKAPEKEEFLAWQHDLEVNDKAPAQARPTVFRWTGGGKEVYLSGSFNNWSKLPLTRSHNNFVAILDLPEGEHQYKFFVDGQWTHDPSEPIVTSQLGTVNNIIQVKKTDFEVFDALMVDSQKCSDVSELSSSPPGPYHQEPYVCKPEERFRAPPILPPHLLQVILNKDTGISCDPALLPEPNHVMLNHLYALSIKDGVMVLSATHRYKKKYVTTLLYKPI
Sequence (P54619 whole entry partner): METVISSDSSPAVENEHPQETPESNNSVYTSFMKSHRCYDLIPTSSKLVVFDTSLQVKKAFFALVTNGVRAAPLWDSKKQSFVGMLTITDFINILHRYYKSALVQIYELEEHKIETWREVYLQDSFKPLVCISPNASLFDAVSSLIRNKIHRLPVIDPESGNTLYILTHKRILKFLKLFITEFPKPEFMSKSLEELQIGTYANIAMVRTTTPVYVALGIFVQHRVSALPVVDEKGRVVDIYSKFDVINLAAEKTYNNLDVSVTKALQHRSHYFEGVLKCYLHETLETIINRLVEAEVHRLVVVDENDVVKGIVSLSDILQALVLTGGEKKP
Scale: pEC50 equals -log10([C]), with [C] in mol/L.

Example entries begin here.
{"compound": "O=C(O)C1CCC(Oc2nc3c(F)c(-c4ccc5c(ccn5C5CC5)c4)c(F)cc3[nH]2)CC1 (stereo not shown) [Example 21]", "pEC50": 8.40}
{"compound": "O=C(O)C1CC(Oc2nc3c(F)c(-c4ccc(-c5ccccc5)cc4)c(F)cc3[nH]2)C1 (stereo not shown) [Example 18]", "pEC50": 7.85}
{"compound": "O=C(O)C1CCCC(Oc2nc3c(F)c(-c4ccc(-c5ccccc5)cc4)c(F)cc3[nH]2)C1 (stereo not shown) [Example 16]", "pEC50": 8.22}
{"compound": "O=C(O)C1CCC(Oc2nc3c(F)c(-c4ccc(-c5ccccc5)cc4)c(F)cc3[nH]2)C1 (stereo not shown) [Example 17]", "pEC50": 7.89}
{"compound": "O=C(O)C1CC1COc1nc2c(F)c(-c3ccc(-c4ccccc4)cc3)c(F)cc2[nH]1 (stereo not shown) [Example 19]", "pEC50": 7.77}

// output pEC50; input O=C(O)C1CCC(Oc2nc3c(F)c(-c4ccc(-c5ccccc5)cc4)c(F)cc3[nH]2)CC1 (stereo not shown) [Example 15] ; system recombinant human AMPK complex 1 (containing α1β1γ1) (Homo sapiens, UniProt Q13131+Q9Y478)
8.00

Using recombinant human AMPK complex 1 (containing α1β1γ1) (Homo sapiens, UniProt Q13131+Q9Y478) as the test system, report measured pEC50 of O=C(O)C1CCC(Oc2nc3c(F)c(-c4ccc(-c5ccc(C(=O)N6CCC(O)CC6)cc5)cc4)c(F)cc3[nH]2)CC1 (single isomer, unassigned) [Example 20] .
8.00

All values here come from patent US8895596B2.
